- system.name: T1, recombinant human CTLA4 protein with human IgG1 Fc tag at the C-terminus (Acro biosystems, Cat#CT4-H5255) (human, UniProt P16410 37-162)
- T1 construct: bought protein; also called human CTLA4-Fc; CTLA4-Fc; not shown: human IgG1 Fc tag at the C-terminus
- T1 sequence (looked up): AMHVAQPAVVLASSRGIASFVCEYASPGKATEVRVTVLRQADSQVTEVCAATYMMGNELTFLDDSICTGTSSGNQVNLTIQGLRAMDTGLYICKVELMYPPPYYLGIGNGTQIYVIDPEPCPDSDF
- measurement.description: capture ELISA: antibody captured on coated plate (anti-human IgG Fc for the chimeric antibodies), biotin human CTLA4-Fc, streptavidin-HRP, OD(450-630)
binders and their reported EC50
endpoint.name: EC50 (nM)

[[record]]
binder = "chimeric C1G4 anti-CTLA4 antibody (antibody, human IgG4 S228P, kappa, V domains shown, mouse variable domains on human IgG4/kappa, made in 293F cells) VH: EVKLDETGGGLVQPGRPIKLSCVASGFTFSDNWMNWVRQSPEKGLEWVAQIRNKPYNYETYYSDSVKGRFTISRDDSKSSVYLQMNNLRTKDMGIYYCTGGFTYWGQGTLVTVSA VL: DIQMTQSPPSLSASVGETVTITCGASENIYGGLNWYQRKQGKSPQLLIYGATNLADGMSSRFSGSGSGRQYSLKISRLHPDDVATYYCQNVLNTPYTFGGGTKLEIKR"
endpoint_name = "EC50"
test_value = 0.869

[[record]]
binder = "mouse anti-CTLA4 monoclonal antibody C1D1 (antibody, V domains shown, mouse mAb purified from hybridoma supernatant) VH: EVKLDETGGGLVQPGRPLKLSCVASGFTFSDNWMNWVRQSPEKGLEWVAQIRNKPYNYETYYSDSVKGRFTISRDDSKSSVYLQMNNLRVEDMGIYYCTGGMDYWGQGTSVTVSS VL: DIQMTQSPASLSASVGETVTITCGASEIIYGALNWYQQKQGKSPQLLIYGATNLADGMSSRFSGSGSGRQYSLKISSLHPDDAATYYCQKILSPPPWTFGGGTKLEIK"
endpoint_name = "EC50"
test_value = 0.445

[[record]]
binder = "chimeric D1B8 anti-CTLA4 antibody (antibody, human IgG4 S228P, kappa, V domains shown, mouse variable domains on human IgG4/kappa) VH: QIQLQQSGPELVKPGASVKISCKASGYTFTDYYINWVKQRPGQGLEWIGWIYPGNNNTRYNEKFKGKATLTIDTSSSTAFMHLSSLTSEDSAVYFCARYYFDYWGQGTTLTVSS VL: DIQMTQSPSSLSASLGERISLTCRASQEITGYLSWLQQKPDGTIKRLIYAASTLDSGVPQRFSGSRSGSDYSLTISSLESEDFADYYCLQYASYPRTFGGGTKLEIKR"
endpoint_name = "EC50"
test_value = 2.84


Reference source for all entries: patent US20230212304A1
